- Experimental System: T1, Soluble heterodimeric CD3 protein (hCD3-epsilon/hCD3-delta) with either a human Fc tag (hFcΔAdp/hFc) or a … (human, UniProt P07766 23-126; P04234 22-105)
- T1 construct: also called hCD3ε/δ; not shown: Fc tag: human (hFcΔAdp/hFc)
- T1 sequence (P07766 23-126 limits assumed, stated change not applied, chain 1 of 2): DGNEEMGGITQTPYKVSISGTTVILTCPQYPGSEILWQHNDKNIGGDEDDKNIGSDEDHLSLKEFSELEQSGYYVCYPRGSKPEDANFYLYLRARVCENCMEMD
- T1 sequence (P04234 22-105 limits assumed, stated change not applied, chain 2 of 2): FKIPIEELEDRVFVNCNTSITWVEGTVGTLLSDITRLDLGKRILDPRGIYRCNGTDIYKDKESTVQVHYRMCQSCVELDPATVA
- Measurement Description: SPR Biacore 25C antigen-capture

{"columns": ["Binder", "koff"],
 "data": [
  ["H1H5755B (antibody, human IgG1, V domains shown, H1H: human IgG1 Fc; divalent) VH: EVQLVESGGGVVQPGRSLRLSCAASGFTFSNYGMHWVRQAPGKGLEWVTVILHDGSYKYYADSVKGRFTISRDNSKNTLHLQMNSLRTEDTAVYYCAKGPMFRGVPYNHYYGMDVWGQGTTVTVSS VL: DIQMTQSPSSLSASVGDRVTITCRASQGIRNDLGWYQQKPGKAPKRLIYAASSLQSGVSSRFSGSGSGTEFTLTISSLQPEDFATYYCLQHNSYPYTFGQGTKVEIKR", "0.000201 s⁻¹"],
  ["H1H5780P (antibody, human IgG1, V domains shown, H1H: human IgG1 Fc; divalent) VH: EVQLVESGGGLVQPGRSLRLSCAASGFTFDDYAMHWVRQAPGKGLEWVSGISWNGGSKDYADSVKGRFTISRDNTRNSLSLQMNSLRIEDTALYYCAKDKSGYGSFYYGLDVWGQGTTVTVSS VL: EIVLTQSPGTLSLSPGDRATLSCRASQSIRSIYLAWYQQKPGQAPRLLIHGASTRATGIPDRFSGSGSGTDFTLTISRLEPEDFAVYYCQQRVSSPYTFGQGTKLEIK", "0.000171 s⁻¹"]
]}

Where do these numbers come from? They come from patent US20190127480A1.
